Values were extracted from patent US6849657B2.

// UniProt Q62928 Ki records
API: value field is a number in µM; no unit string.

Study these solved cases before continuing.
| compound | unit spec | Ki |
| --- | --- | --- |
| O=C(O)COCCCCN1C(=O)CC[C@@H]1/C=C/[C@@H](O)Cc1cccc(C(F)(F)F)c1 | µM | 66 |
| O=C(O)CCCSCCN1C(=O)CC[C@@H]1CC[C@@H](O)c1cccc(Oc2cccc(F)c2)c1 | µM | 7.8 |

Now take the following compound into account.
Ki value, target or system UniProt Q62928, for CCCCCC(C)(O)/C=C/[C@H]1CCC(=O)N1CCSCCCC(=O)O (some centres unmarked) : 18
